assay: Microsome stability assay, human liver microsomes; assay type: in vitro ADME; details: human, human liver microsomes, pooled; 1 μM compound, 0.5 mg/mL microsomal protein, NADPH, 37° C.; read-out: Microsome Stability Human liver microsomes Cl
property.name: microsomal CLint at 1 μM

Below are worked cases with known answers.
The reported value for Cc1ccc2c(c1)[C@H](NC(=O)c1ccc(C(F)(F)F)[nH]c1=O)C[C@@H](C)N2 in terms of microsomal CLint at 1 μM is < 9.6 µL/min/mg

The reported value for Cc1ccc2c(c1)[C@@H](O)CC[C@H]2NC(=O)c1ccc(C(F)(F)F)[nH]c1=O in terms of microsomal CLint at 1 μM is < 9.6 µL/min/mg

New cases:
The reported value for Cc1ccc2c(c1)Oc1cc(C)ccc1C2NC(=O)c1ccc(C(F)(F)F)[nH]c1=O in terms of microsomal CLint at 1 μM is < 9.6 µL/min/mg

====

test: Microsome stability assay, human liver microsomes; format: in vitro ADME; settings: 60 min; 1 μM compound, 0.5 mg/mL microsomal protein
property.name: Microsome Stability Human liver microsomes % Remaining @60 min (%)

Below are worked cases with known answers.
The reported value for Cc1ccc(C(CC2CC2)NC(=O)c2ccc(C(F)(F)F)[nH]c2=O)cc1 (centres unmarked) in terms of Microsome Stability Human liver microsomes % Remaining @60 min is 1.80

The reported value for Cc1ccc2c(c1)CCC(C)C2NC(=O)c1ccc(C(F)(F)F)[nH]c1=O (centres unmarked) in terms of Microsome Stability Human liver microsomes % Remaining @60 min is 0.10

The reported value for O=C(NC(c1ccccc1)c1cccc(O)c1)c1ccc(C(F)(F)F)[nH]c1=O (centres unmarked) in terms of Microsome Stability Human liver microsomes % Remaining @60 min is 36.60

[a] COC1Cc2cc(C)ccc2C1NC(=O)c1ccc(C(F)(F)F)[nH]c1=O (centres unmarked)
[b] O=C(NC(c1ccccc1)c1cccc(C(F)(F)F)c1)c1ccc(C(F)(F)F)[nH]c1=O (centres unmarked)
**Query** Please compare: a and b . Report which one has the smaller Microsome Stability Human liver microsomes % Remaining @60 min value. Your choice should be expressed through its label.
**Result** a
(a: 0.73%, b: 101.00%)

[P] O=C(NC(c1ccccc1)c1ccc(C(F)(F)F)cc1)c1ccc(C(F)(F)F)[nH]c1=O (centres unmarked)
[Q] Cc1ccc2c(c1)CCCC2NC(=O)c1ccc(C(F)(F)F)[nH]c1=O (centres unmarked)
[R] Cc1ccc(C(=O)NC(c2ccccc2)c2ccccc2O)c(=O)[nH]1 (centres unmarked)
[S] CCCC1Cc2cc(C)ccc2C(NC(=O)c2ccc(C(F)(F)F)[nH]c2=O)C1 (centres unmarked)
**Query** Reorder the items by Microsome Stability Human liver microsomes % Remaining @60 min, least to greatest. # respond with the labels, arranged in the requested order
**Result** Q, S, R, P

====

target: HSD17B13 (Homo sapiens (Human), UniProt Q7Z5P4); experiment: HSD17B13 enzymatic inhibition assay (150 nM or 50 nM HSD17B13); type: biochemical; settings: 50 nM HSD17B13; read-out: Inhibition of 50 nM of HSD17B13 IC50
Sequence (Q7Z5P4 other isoform, or with tags, fused parts or gaps): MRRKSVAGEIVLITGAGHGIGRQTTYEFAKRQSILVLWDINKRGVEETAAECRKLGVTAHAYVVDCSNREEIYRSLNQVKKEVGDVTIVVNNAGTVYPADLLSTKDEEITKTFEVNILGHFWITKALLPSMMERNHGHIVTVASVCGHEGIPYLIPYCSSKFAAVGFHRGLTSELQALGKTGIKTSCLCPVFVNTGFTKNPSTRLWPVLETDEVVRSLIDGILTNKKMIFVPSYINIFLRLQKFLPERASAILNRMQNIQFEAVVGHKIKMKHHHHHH
pIC50: −log10 of the molar value.
property.name: pIC50

Below are worked cases with known answers.
The reported value for Cc1ccc2c(c1)Sc1cc(C)ccc1C2NC(=O)c1cc(-c2ccncc2)c(C(F)(F)F)[nH]c1=O in terms of pIC50 is 7.52

The reported value for O=C(NC(c1ccccc1)c1ccc(C2CCC2)cc1)c1ccc(C(F)(F)F)[nH]c1=O (stereo not drawn) in terms of pIC50 is 6.17

The reported value for CC[C@@H]1C[C@@H](NC(=O)c2ccc(C(F)(F)F)[nH]c2=O)c2ccc(C)cc2N1 in terms of pIC50 is 6.42

The reported value for CC(C)(C)OC(=O)Nc1ccc(CSc2ncc(C(=O)NC3c4ccc(Cl)cc4Oc4cc(Cl)ccc43)c(=O)[nH]2)cc1 in terms of pIC50 is 6.04

The reported value for Cc1ccc2c(c1)Oc1cc(C)ccc1C2NC(=O)c1cc(C2=CCNCC2)c(C(F)(F)F)[nH]c1=O in terms of pIC50 is 6.70

The reported value for O=C(NC(c1ccccc1)c1ccc(-c2cccnc2)cc1)c1ccc(C(F)(F)F)[nH]c1=O (stereo not drawn) in terms of pIC50 is 6.22

[P] O=C(NC(c1ccc(OC(F)(F)F)cc1)c1ccc(OC(F)(F)F)cc1)c1ccc(C(F)(F)F)[nH]c1=O
[Q] CCCC1CC(NC(=O)c2ccc(C(F)(F)F)[nH]c2=O)c2ccc(C)cc2S1 (stereo not drawn)
**Query** // compare measured pIC50, left P , right Q , return larger Your choice should be expressed through its label.
**Result** Q

[A] O=C(NC(c1ccccc1)c1ccc2c(c1)CCCN2)c1ccc(C(F)(F)F)[nH]c1=O (stereo not drawn)
[B] O=C(NC1c2ccccc2Oc2ccc(CC(F)(F)F)cc21)c1ccc(C(F)(F)F)[nH]c1=O (stereo not drawn)
[C] O=C(NC1c2ccc(OC(F)F)cc2-c2cc(OC(F)F)ccc21)c1ccc(C(F)(F)F)[nH]c1=O
**Query** Reorder the items by pIC50, least to greatest. # respond with the labels, arranged in the requested order
**Result** C, A, B
(C: 5.74, A: 6.02, B: 6.59)

[1] O=C(NC(c1ccccc1)c1ccc(N2CCOCC2)cc1)c1ccc(C(F)(F)F)[nH]c1=O (stereo not drawn)
[2] CCc1ccc2c(c1)-c1cc(CC)ccc1C2NC(=O)c1ccc(C(F)(F)F)[nH]c1=O
**Query** Please compare: 1 and 2 . Report which one has the smaller pIC50 value. Your choice should be expressed through its label.
**Result** 1
(1: 5.60, 2: 5.89)

====

These records show pIC50 for HSD17B1 (Homo sapiens (Human)).
pIC50: −log10 of the molar value.
property.name: pIC50

Below are worked cases with known answers.
The reported value for C=Cc1cc(C(=O)NC2c3ccc(C)cc3Oc3cc(C)ccc32)c(=O)[nH]c1C(F)(F)F [Compound 182] in terms of pIC50 is 5.29

The reported value for O=C(NC(c1ccccc1)c1ccc2c(c1)CCCC2)c1ccc(C(F)(F)F)[nH]c1=O (centres unmarked) [Compound 80] in terms of pIC50 is 5.44

The reported value for Cc1ccc2c(c1)Oc1cc(C)ccc1C2NC(=O)c1cc(-c2ccccc2)c(C(F)(F)F)[nH]c1=O [Compound 177] in terms of pIC50 is 5.38

[P] O=C(NC1c2ccccc2Oc2cc(Cl)ccc21)c1ccc(C(F)(F)F)[nH]c1=O (centres unmarked) [Compound 15A]
[Q] CCc1cc(C(=O)NC2c3ccc(C)cc3Oc3cc(C)ccc32)c(=O)[nH]c1C(F)(F)F [Compound 176]
**Query** Please compare: P and Q . Report which one has the smaller pIC50 value. Your choice should be expressed through its label.
**Result** Q
(Q: 5.19, P: 5.41)

====

target: HSD17B13 (Homo sapiens (Human)); assay: HSD17B13 enzymatic inhibition assay (150 nM or 50 nM HSD17B13); format: biochemical; details: 50 nM HSD17B13; read-out: Inhibition of 50 nM of HSD17B13 IC50
property.name: IC50 (nM)

The reported value for CC(NC(=O)c1ccc(C(F)(F)F)[nH]c1=O)(c1ccc(O)cc1)c1ccc(O)cc1 [Compound 21A] in terms of IC50 is 1850

[A] Cc1ccc2c(c1)C(C)CCC2NC(=O)c1ccc(C(F)(F)F)[nH]c1=O (stereo not shown)
[B] CCC[C@@H]1C[C@H](NC(=O)c2ccc(C(F)(F)F)[nH]c2=O)C[C@H](CCC)O1
**Query** Please compare: A and B . Report which one has the smaller IC50 value. Your choice should be expressed through its label.
**Result** A
(A: 160 nM, B: 3060 nM)

====

assay: Microsome stability assay, human liver microsomes; type: in vitro ADME; conditions: human, human liver microsomes, pooled; 1 μM compound, 0.5 mg/mL microsomal protein, NADPH, 37° C.; read-out: Microsome Stability Human liver microsomes T½
property.name: half-life at 1 μM (min)

The reported value for CC[C@@H]1C[C@H](NC(=O)c2ccc(C(F)(F)F)[nH]c2=O)c2ccc(C)cc2N1 in terms of half-life at 1 μM is 31.3

[A] Cc1ccc(C(=O)NC(c2ccccc2)c2ccccc2O)c(=O)[nH]1 (stereo not drawn)
[B] CCC[C@@H]1C[C@@H](NC(=O)c2ccc(C(F)(F)F)[nH]c2=O)c2cc(C)ccc2N1
**Query** Please compare: A and B . Report which one has the smaller half-life at 1 μM value. Your choice should be expressed through its label.
**Result** A
(A: 11.8 min, B: 82 min)

====

experiment: Microsome stability assay, mouse liver microsomes; assay type: in vitro ADME; details: mouse, mouse liver microsomes, pooled; 1 μM compound, 0.5 mg/mL microsomal protein, NADPH, 37° C.; read-out: Microsome Stability Mouse liver microsomes T½
property.name: half-life at 1 h, 1 µM (min)

The reported value for CCC1Cc2cc(C)ccc2C(NC(=O)c2ccc(C(F)(F)F)[nH]c2=O)C1 (stereo not shown) in terms of half-life at 1 h, 1 µM is 29.2

[1] CCCC1=Cc2cc(C)ccc2C1NC(=O)c1ccc(C(F)(F)F)[nH]c1=O (stereo not shown)
[2] O=C(NC(c1ccc(Cl)cc1)c1ccc(Cl)cc1)c1ccc(C(F)(F)F)[nH]c1=O
[3] CC1CCc2cc(Cl)ccc2C1NC(=O)c1ccc(C(F)(F)F)[nH]c1=O (stereo not shown)
**Query** Rank by half-life at 1 h, 1 µM (largest to smallest). # respond with the labels, arranged in the requested order
**Result** 2, 1, 3

Values compiled from patent US11957687B2.
